Kindly supply the reported refractive index values for the records listed here.
experiment: refractive index (Na D-line) (dimensionless); conditions: 293.15 K; 101.33 kPa; Liquid; Standard Abbe refractometry
Give bare numbers.

[[record]]
mol_smiles = "CCCCC(=O)O"
assay_value = 1.4088

[[record]]
mol_smiles = "O"
assay_value = 1.3324


Hi team, please reply with refractive index for each item in this list.
1. CCCCCCCCCCCO
2. CC(=O)O
3. O=CO
4. CCC(=O)O

*A*
1.4402
1.371
1.3721
1.3808
